Data credit: patent US9884823B2

// reported inhibition rate, Radish Stem per item
test system: Radish; experiment: Culture dish method (general screening); assay type: in vivo; details: 100 mg/L; 7 days; stem
reported metric: inhibition rate, Radish Stem (%)

>>> readout_value("CON=C(C(=O)OC)c1ccccc1COc1ccc(-c2ccc(C(F)(F)F)cn2)cc1 [Compound 32]")
50
>>> readout_value("CON=C(C(=O)OC)c1ccccc1COc1ccc(-c2ccnc(Cl)c2)cc1 [Compound 75]")
0
>>> readout_value("CON=C(C(=O)OC)c1ccccc1COc1cccc(-c2nc(Cl)c(Cl)cc2Cl)c1 [Compound 99]")
50
>>> readout_value("CON=C(C(=O)OC)c1ccccc1COc1cccc(-c2ncc(C(F)(F)F)cc2Cl)c1 [Compound 101]")
100
